Record form. Attribute: Degradation H1975 # 25-LTC. Fill in for each entry.
Target: EGFR L858R/T790M/C797S (H1975-clone #25) (Homo sapiens, UniProt P00533, C797S/L858R/T790M)
Construct: expressed in transfected cells; host or cells: H1975 (clone #25), lentiviral transduction, endogenous EGFR knocked out
Sequence (P00533 25-1210 T790M/C797S/L858R): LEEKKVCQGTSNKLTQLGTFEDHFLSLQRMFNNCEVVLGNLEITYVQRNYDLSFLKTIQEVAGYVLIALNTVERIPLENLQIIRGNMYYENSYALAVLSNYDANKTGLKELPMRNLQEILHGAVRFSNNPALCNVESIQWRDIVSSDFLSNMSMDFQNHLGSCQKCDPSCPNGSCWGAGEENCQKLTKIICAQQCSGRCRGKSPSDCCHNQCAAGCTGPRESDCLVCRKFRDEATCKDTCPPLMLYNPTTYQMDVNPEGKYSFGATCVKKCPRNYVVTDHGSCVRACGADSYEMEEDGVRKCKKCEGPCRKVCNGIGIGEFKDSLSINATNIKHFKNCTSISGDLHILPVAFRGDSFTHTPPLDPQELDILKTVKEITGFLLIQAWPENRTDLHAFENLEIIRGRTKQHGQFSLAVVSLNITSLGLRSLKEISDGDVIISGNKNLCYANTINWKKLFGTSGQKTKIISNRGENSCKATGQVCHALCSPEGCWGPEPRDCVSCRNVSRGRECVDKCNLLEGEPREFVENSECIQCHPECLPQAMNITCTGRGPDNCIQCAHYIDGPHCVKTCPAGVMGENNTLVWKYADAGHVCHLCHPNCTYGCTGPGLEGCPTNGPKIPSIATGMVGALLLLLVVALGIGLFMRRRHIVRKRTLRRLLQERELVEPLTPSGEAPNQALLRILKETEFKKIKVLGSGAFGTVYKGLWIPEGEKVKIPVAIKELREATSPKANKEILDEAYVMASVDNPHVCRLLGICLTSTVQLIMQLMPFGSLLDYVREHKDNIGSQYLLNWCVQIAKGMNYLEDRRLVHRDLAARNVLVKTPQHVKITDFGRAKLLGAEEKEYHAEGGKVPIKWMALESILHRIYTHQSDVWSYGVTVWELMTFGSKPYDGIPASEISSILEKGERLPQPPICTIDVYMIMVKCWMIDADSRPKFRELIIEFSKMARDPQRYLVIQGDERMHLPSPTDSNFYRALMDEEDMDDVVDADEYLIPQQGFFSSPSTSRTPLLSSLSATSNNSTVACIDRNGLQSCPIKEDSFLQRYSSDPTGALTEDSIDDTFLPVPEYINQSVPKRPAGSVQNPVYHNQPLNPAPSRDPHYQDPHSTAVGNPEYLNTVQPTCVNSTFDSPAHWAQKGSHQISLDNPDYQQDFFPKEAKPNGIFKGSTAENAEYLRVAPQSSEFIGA
Experiment: EGFR degradation, HTRF total-EGFR assay, H1975-clone #25 (LTC)
Format: cell-based
Conditions: H1975-clone #25 L858R/T790M/C797S, 16 h treatment
Give bare numbers.

Compound	Test Readout	Measurement
Cc1cc2cc(n1)-c1cnn(C)c1OC[C@H]1C[C@@H](CN3/C(=N/C2=O)Nc2ccc(N4CCN(C5CCN(c6ccc(C7CCC(=O)NC7=O)nc6C)CC5)C[C@@H]4C)cc23)C1 (stereo partly shown)	Degradation H1975 # 25-LTC	93.3
Cc1cc2cc(n1)-c1cnn(C)c1OC[C@H]1C[C@@H](CN3/C(=N/C2=O)Nc2ccc(N4CCN([C@H]5C[C@@H](Nc6cc(F)c([C@H]7CCC(=O)NC7=O)c(F)c6)C5)CC4)cc23)C1 (single isomer, unassigned)	Degradation H1975 # 25-LTC	64.0
Cc1cc2cc(n1)-c1cnn(C)c1OC[C@H]1C[C@@H](CN3/C(=N/C2=O)Nc2ccc(N4CCN(C5CCN(c6ccc(C7CCC(=O)NC7=O)nc6)CC5)CC4)cc23)C1 (stereo partly shown)	Degradation H1975 # 25-LTC	87.3
Cc1cc2cc(n1)-c1cnn(C)c1OC[C@H]1C[C@@H](CN3/C(=N/C2=O)Nc2ccc(N4CCN(C5CCN(c6ccc(C7CCC(=O)NC7=O)nc6C)CC5)CC4)cc23)C1 (stereo partly shown)	Degradation H1975 # 25-LTC	94.0
Cc1cc2cc(n1)-c1cnn(C)c1OC[C@H]1C[C@@H](CN3/C(=N/C2=O)Nc2ccc(N4CCN(C5CCN(c6ccc(C7CCC(=O)NC7=O)nc6)CC5)CC4=O)cc23)C1 (stereo partly shown)	Degradation H1975 # 25-LTC	79.0
Cc1cc2cc(n1)-c1cnn(C)c1OC[C@H]1C[C@@H](CN3/C(=N/C2=O)Nc2ccc(N4CCN(C5CCN(c6ccc(C7CCC(=O)NC7=O)nc6C)CC5)CC45COC5)cc23)C1 (stereo partly shown)	Degradation H1975 # 25-LTC	87.5
Cc1cc2cc(n1)-c1cnn(C)c1OC[C@H]1C[C@@H](CN3/C(=N/C2=O)Nc2ccc(N4CCN(C5CCN(c6ccc(C7CCC(=O)NC7=O)nc6)CC5)C[C@@H]4C)cc23)C1 (stereo partly shown)	Degradation H1975 # 25-LTC	87.7
Cc1cc2cc(n1)-c1cnn(C)c1OC[C@H]1C[C@@H](CN3/C(=N/C2=O)Nc2ccc(N4CCC(N5CCN(c6cnc(C7CCC(=O)NC7=O)cc6C)CC5)CC4)cc23)C1 (stereo partly shown)	Degradation H1975 # 25-LTC	92.9

Hi team, please reply with Degradation H1975 # 25-LTC for each item in this list.
1. Cc1cc2cc(n1)-c1cnn(C)c1OC[C@H]1C[C@@H](CN3/C(=N/C2=O)Nc2ccc(N4CCN([C@H]5CCN(c6ccc(C7CCC(=O)NC7=O)nc6C)C[C@H]5F)CC4)cc23)C1 (stereo partly shown)
2. Cc1cc2cc(n1)-c1cnn(C)c1OC[C@H]1C[C@@H](CN3/C(=N/C2=O)Nc2ccc(N4CC5(C4)CN(C4CCN(c6ccc(C7CCC(=O)NC7=O)nc6C)CC4)C5)cc23)C1 (stereo partly shown)
3. Cc1cc2cc(n1)-c1cnn(C)c1OC[C@H]1C[C@@H](CN3/C(=N/C2=O)Nc2ccc(CN4CCN(C(=O)C5CN(c6cc(F)c([C@H]7CCC(=O)NC7=O)c(F)c6)C5)CC4)cc23)C1
4. Cc1cc2cc(n1)-c1cnn(C)c1OC[C@H]1C[C@@H](CN3/C(=N/C2=O)Nc2ccc(N4CCN(CCNc5cc(F)c([C@H]6CCC(=O)NC6=O)c(F)c5)CC4)cc23)C1 (single isomer, unassigned)

// result
92.2
78.4
85.6
83.9

Please give Degradation H1975 # 25-LTC, item by item, for the list that follows.
1. Cc1cc2cc(n1)-c1cnn(C)c1OC[C@H]1C[C@@H](CN3/C(=N/C2=O)Nc2ccc(N4CC5CCC4CN5C4CCN(c5ccc(C6CCC(=O)NC6=O)nc5C)CC4)cc23)C1 (stereo partly shown)
2. Cc1cc2cc(n1)-c1cnn(C)c1OC[C@H]1C[C@@H](CN3/C(=N/C2=O)Nc2ccc(N4CCC(N5CCN(c6cc(F)c([C@H]7CCC(=O)NC7=O)c(F)c6)CC5=O)CC4)cc23)C1
3. Cc1cc2cc(n1)-c1cnn(C)c1OC[C@H]1C[C@@H](CN3/C(=N/C2=O)Nc2ccc(N4CCN(C5CCN(c6ccc(C7CCC(=O)NC7=O)nc6C)CC5)CC4=O)cc23)C1 (stereo partly shown)
4. Cc1cc2cc(n1)-c1cnn(C)c1OC[C@H]1C[C@H](CN3/C(=N/C2=O)Nc2ccc(CN4CCN(C(=O)C5CN(c6cc(F)c([C@H]7CCC(=O)NC7=O)c(F)c6)CC5(C)C)CC4)cc23)C1 (stereo partly shown)
5. COC[C@H]1CN(c2ccc3c(c2)N2C[C@H]4C[C@@H](COc5c(cnn5C)-c5cc(cc(C)n5)C(=O)/N=C/2N3)C4)CCN1C1CCN(c2cc(F)c([C@H]3CCC(=O)NC3=O)c(F)c2)CC1
6. Cc1cc2cc(n1)-c1cnn(C)c1OC[C@H]1C[C@@H](CN3/C(=N/C2=O)Nc2ccc(N4CC[C@H](N5CCN(c6ccc(C7CCC(=O)NC7=O)nc6C)CC5)C(F)(F)C4)cc23)C1 (stereo partly shown)
7. Cc1cc2cc(n1)-c1cnn(C)c1OC[C@H]1C[C@@H](CN3/C(=N/C2=O)Nc2ccc(N4CCN(CCc5ccc(C6CCC(=O)NC6=O)nc5C)CC4)cc23)C1 (stereo partly shown)

// result
1: 85.9; 2: 91.8; 3: 91.7; 4: 62.0; 5: 89.6; 6: 90.9; 7: 90.3

Hey, just so you know, these numbers are from patent US20250332266A1.
